For each entry below, report its IC50 value.
System: A549
Assay: In vitro cytotoxicity against human A549 (lung cancer) cell line.
Format: functional, cell-based
Enter your answer as a number in µM; do not include the unit.

q: May I ask what IC50 has been recorded for Cc1cccc(NC2=C(Cl)C(=O)c3ncncc3C2=O)c1 ?
a: 5.17

q: May I ask what IC50 has been recorded for O=C1C(Nc2cccc(Cl)c2)=C(Cl)C(=O)c2ncncc21 ?
a: 4.22

q: May I ask what IC50 has been recorded for CCOc1ccccc1/N=C1/C(=O)c2cncnc2C(O)=C1Cl ?
a: 3.28

q: May I ask what IC50 has been recorded for O=C1C(Nc2cccc(Br)c2)=C(Cl)C(=O)c2ncncc21 ?
a: 3.68

q: May I ask what IC50 has been recorded for O=C1C(Nc2ccc(Br)cc2)=C(Cl)C(=O)c2ncncc21 ?
a: 4.31

q: May I ask what IC50 has been recorded for Cc1ccccc1/N=C1/C(=O)c2cncnc2C(O)=C1Cl ?
a: 3.6

q: May I ask what IC50 has been recorded for COc1ccc(/N=C2/C(=O)c3cncnc3C(O)=C2Cl)c(OC)c1 ?
a: 2.02

q: May I ask what IC50 has been recorded for O=C1C(Nc2ccccc2Br)=C(Cl)C(=O)c2ncncc21 ?
a: 4.47

q: May I ask what IC50 has been recorded for COc1cccc2c1C(=O)c1c(O)c3c(c(O)c1C2=O)C[C@@](O)(C(=O)CO)C[C@@H]3O[C@H]1C[C@H](N)[C@H](O)[C@H](C)O1 [DOXORUBICIN] ?
a: 0.3

q: May I ask what IC50 has been recorded for O=C1C(Nc2ccccc2)=C(Cl)C(=O)c2ncncc21 ?
a: 3.54

q: May I ask what IC50 has been recorded for O=C1C(Nc2ccc3c(c2)OCO3)=C(Cl)C(=O)c2ncncc21 ?
a: 1.67

q: May I ask what IC50 has been recorded for Cc1ccc(/N=C2/C(=O)c3cncnc3C(O)=C2Cl)c(Br)c1 ?
a: 4.07

q: May I ask what IC50 has been recorded for Cc1ccc(NC2=C(Cl)C(=O)c3ncncc3C2=O)cc1C ?
a: 4.49

q: May I ask what IC50 has been recorded for Cc1c2ccncc2c(C)c2c1[nH]c1ccccc12 [ELLIPTECINE] ?
a: 1.22

q: May I ask what IC50 has been recorded for CCc1ccc(NC2=C(Cl)C(=O)c3ncncc3C2=O)cc1 ?
a: 3.44

q: May I ask what IC50 has been recorded for Cc1ccc(NC2=C(Cl)C(=O)c3ncncc3C2=O)cc1 ?
a: 5.81

q: May I ask what IC50 has been recorded for CCc1ccccc1/N=C1/C(=O)c2cncnc2C(O)=C1Cl ?
a: 4.65

====

Test system: Col2
Test: In vitro cytotoxicity against human Col2 (colon cancer) cell line.
Format: functional, cell-based
Hi! Could you tag entries with IC50 below 1000 nM as Yes, and those at or above as No? Much appreciated.

q: Does this compound meet the criterion IC50 < 1000 nM? CCc1ccc(NC2=C(Cl)C(=O)c3ncncc3C2=O)cc1
a: Yes

q: Does this compound meet the criterion IC50 < 1000 nM? O=C1C(Nc2cccc(Cl)c2)=C(Cl)C(=O)c2ncncc21
a: No

q: Does this compound meet the criterion IC50 < 1000 nM? O=C1C(Nc2cccc(Br)c2)=C(Cl)C(=O)c2ncncc21
a: No

q: Does this compound meet the criterion IC50 < 1000 nM? CCOc1ccccc1/N=C1/C(=O)c2cncnc2C(O)=C1Cl
a: Yes

q: Does this compound meet the criterion IC50 < 1000 nM? O=C1C(Nc2ccccc2)=C(Cl)C(=O)c2ncncc21
a: No

q: Does this compound meet the criterion IC50 < 1000 nM? Cc1ccccc1/N=C1/C(=O)c2cncnc2C(O)=C1Cl
a: No

q: Does this compound meet the criterion IC50 < 1000 nM? Cc1c2ccncc2c(C)c2c1[nH]c1ccccc12
a: No

q: Does this compound meet the criterion IC50 < 1000 nM? CCc1ccccc1/N=C1/C(=O)c2cncnc2C(O)=C1Cl
a: No

q: Does this compound meet the criterion IC50 < 1000 nM? COc1ccc(/N=C2/C(=O)c3cncnc3C(O)=C2Cl)c(OC)c1
a: No

q: Does this compound meet the criterion IC50 < 1000 nM? COc1cccc2c1C(=O)c1c(O)c3c(c(O)c1C2=O)C[C@@](O)(C(=O)CO)C[C@@H]3O[C@H]1C[C@H](N)[C@H](O)[C@H](C)O1
a: Yes
